Assignment: determine reported ALOMY damage score, application pre-emergence for the given compounds.
- Tested on: Alopecurus myosuroides
- assay.remarks: Pre-emergence herbicidal activity, glasshouse pot test
- Format: in vivo
- condition.label: pre-emergence spray, rate 1000 g/ha, evaluated after 13 days, scale 0-5

# compound, reported
records = [
    ("CC1=C(Cl)C(=O)N(c2cc(C(C)C)ncn2)C1O (centres unmarked)", 2),
    ("CCC(=O)OC1C(C)=C(Cl)C(=O)N1c1cc(C(F)(F)F)c(-c2cccc(C#N)c2)cn1 (centres unmarked)", 0),
    ("CC1=C(Cl)C(=O)N(c2nccc(C(F)(F)F)n2)C1O (centres unmarked)", 4),
    ("CC(C)(C)C1=C(Cl)C(=O)N(c2cc(C(F)(F)F)ccn2)C1O (centres unmarked)", 0),
]

Now take the following compound into account.
Record request: ALOMY damage score, application pre-emergence value, item CCOC(=O)c1cnc(N2C(=O)C(OC)=C(C)C2O)nc1C(F)(F)F (centres unmarked) 4

###

- System: Abutilon theophrasti
- assay.remarks: Pre-emergence herbicidal activity, glasshouse pot test
- Type: in vivo
- condition.label: pre-emergence spray, rate 1000 g/ha, evaluated after 13 days, scale 0-5
measure.name: ABUTH damage score, application pre-emergence
Numbers only.

# molecule, reported
measured = [
    ("COc1nnc(N2C(=O)C(Cl)=C(C)C2O)cc1C (centres unmarked)", 4),
    ("COC1=C(C)C(O)N(c2cc(NC(C)C)ncn2)C1=O (centres unmarked)", 0),
    ("COC1=C(C)C(O)N(c2cc(C(C)C)c(C(=O)NC(C)(C)C#N)cn2)C1=O (centres unmarked)", 2),
    ("COC1=C(C)C(O)N(c2cc(C(F)(F)F)c(Br)cn2)C1=O (centres unmarked)", 3),
    ("CC1=C(Cl)C(=O)N(c2cc(C(C)(C)C#N)ccn2)C1O (centres unmarked)", 3),
]

Below is a list of molecules. For each, state its recorded ABUTH damage score, application pre-emergence.
1. CC1=C(Cl)C(=O)N(c2cc(C(C)C)c(C(=O)NC(C)(C)C)cn2)C1O (centres unmarked)
2. CC1=C(Cl)C(=O)N(c2cc(C(C)C#N)ncn2)C1O (centres unmarked)
3. COC1=C(Br)C(=O)N(c2cc(C(F)(F)F)ccn2)C1O (centres unmarked)

[5, 1, 5]

Please report ABUTH damage score, application pre-emergence for every entry that follows.
1. COC1=C(C)C(O)N(c2cc(C(F)(F)F)c(C(=O)CC#N)cn2)C1=O (centres unmarked)
2. COC1=C(C)C(O)N(c2cc(C(C)(C)C)ncn2)C1=O (centres unmarked)
3. COC1=C(C)C(O)N(c2cc(C(C)(C)F)c(-c3ccc(F)cc3)nn2)C1=O (centres unmarked)
4. CCOC(=O)c1cnc(N2C(=O)C(OC)=C(C)C2O)nc1C(F)(F)F (centres unmarked)
5. COC1=C(C)C(O)N(c2cc(C)c(C(=O)NC(C)C(C)C)cn2)C1=O (centres unmarked)

1
5
4
5
5

Batch: ABUTH damage score, application pre-emergence for all items listed.
1. COC1=C(C)C(O)N(c2cc(C(C)(C)F)c(C#N)nn2)C1=O (centres unmarked)
2. COC1=C(C)C(O)N(c2cc(C(C)(C)F)c(C)nn2)C1=O (centres unmarked)
3. CC1=C(Cl)C(=O)N(c2cc(C#N)ccn2)C1O (centres unmarked)

1: 5; 2: 5; 3: 0

For each of the molecules below, note its ABUTH damage score, application pre-emergence.
1. COC1=C(C)C(O)N(c2cc(C(C)F)ccn2)C1=O (centres unmarked)
2. COC1=C(C)C(O)N(c2cc(F)ccn2)C1=O (centres unmarked)
3. COC1=C(C)C(O)N(c2cc(C(F)(F)F)c(Cl)nn2)C1=O (centres unmarked)
4. CC1=C(Cl)C(=O)N(c2cc(F)ccn2)C1O (centres unmarked)
5. COC1=C(C)C(O)N(c2cc(C(C)(F)F)c(-c3ccc(F)cc3)nn2)C1=O (centres unmarked)
6. CC1=C(Cl)C(=O)N(c2cc(Cl)ncn2)C1O (centres unmarked)

1. 5
2. 1
3. 1
4. 4
5. 4
6. 1

###

- Tested on: Setaria faberi
- assay.remarks: Post-emergence herbicidal activity, glasshouse pot test
- Assay type: in vivo
- Parameters: key: 0 = no damage to plant, 5 = total damage to plant
- condition.label: Application post-emergence, rate 1000 g/ha, evaluated after 13 days
So I've got a bunch of compounds here, and I need their SETFA herbicidal damage score values.
Answers are plain numbers.

Quick batch: SETFA herbicidal damage score for everything below.
1. COC1=C(C)C(O)N(c2ccc(C(=O)NC(C)(C)C#N)nn2)C1=O (stereo not shown)
2. CC1=C(Cl)C(=O)N(c2cc(C#N)ccn2)C1O (stereo not shown)

1. 5
2. 5

Please state SETFA herbicidal damage score for every compound in the list that follows.
1. CC1=C(Cl)C(=O)N(c2cc(C(F)(F)F)c(C(F)(F)F)cn2)C1O (stereo not shown)
2. CC1=C(Cl)C(=O)N(c2cc(C(C)(F)F)ncn2)C1O (stereo not shown)

1. 5
2. 5

###

- Tested on: Amaranthus retroflexus
- assay.remarks: Post-emergence herbicidal activity, glasshouse pot test
- Assay type: in vivo
- Set-up: key: 0 = no damage to plant, 5 = total damage to plant
- condition.label: Application post-emergence, rate 1000 g/ha, evaluated after 13 days
Could you please report measured AMARE herbicidal damage score for the items listed next?
Numbers only.

# compound, AMARE herbicidal damage score
records = [
    ("COC1=C(C)C(O)N(c2cc(C(C)(F)F)c(-c3ccc(F)cc3)nn2)C1=O (stereo not drawn)", 5),
    ("CC1=C(Cl)C(=O)N(c2ccc(C(F)(F)F)cn2)C1O (stereo not drawn)", 5),
    ("COC1=C(C)C(O)N(c2nccc(C(C)(C)C)n2)C1=O (stereo not drawn)", 5),
    ("CC1=C(Cl)C(=O)N(c2ccc([S+](C)[O-])cn2)C1O (stereo not drawn)", 1),
    ("COC1=C(C)C(O)N(c2cc(C(C)C)c(C(=O)NC(C)(C)C#N)cn2)C1=O (stereo not drawn)", 5),
    ("CCCC1=C(Cl)C(=O)N(c2cc(C(C)(C)C#N)ncn2)C1O (stereo not drawn)", 5),
]

Dear reader, for each entry below, please note its AMARE herbicidal damage score.
1. CC1=C(Cl)C(=O)N(c2cc(C(C)(F)F)ccn2)C1O (stereo not drawn)
2. COC1=C(C)C(O)N(c2ccc(NC(=O)C(C)(C)C)cn2)C1=O (stereo not drawn)
3. CC1=C(Cl)C(=O)N(c2cc(C(F)(F)F)c(-c3ccc(Cl)cc3)cn2)C1O (stereo not drawn) [AF90]
4. COC1=C(C)C(O)N(c2cc3c(cn2)CCCC3)C1=O (stereo not drawn)

1. 5
2. 5
3. 5
4. 3

For every record below, what is its AMARE herbicidal damage score?
1. COc1ccc(N2C(=O)C(Cl)=C(C)C2O)nc1 (stereo not drawn)
2. CC1=C(Cl)C(=O)N(c2ccc(C#N)cn2)C1O (stereo not drawn)
3. CC1=C(Cl)C(=O)N(c2cc(C(F)(F)F)cc(Cl)n2)C1O (stereo not drawn)
4. CC1=C(Cl)C(=O)N(c2cc(C)c(-c3ccsc3)cn2)C1O (stereo not drawn)
5. CCO/C=C\c1cnc(N2C(=O)C(Cl)=C(C)C2O)cc1C(F)(F)F (stereo not drawn)
6. CC1=C(Cl)C(=O)N(c2ncc(F)cc2F)C1O (stereo not drawn)

3
0
0
5
5
0

Report AMARE herbicidal damage score for each item below.
1. CCOC1=C(C)C(O)N(c2cc(C(F)(F)F)ccn2)C1=O (stereo not drawn)
2. COC1=C(C)C(O)N(c2cc(C(C)(C)C)c(Cl)nn2)C1=O (stereo not drawn) [BI1]

5
5

###

- Tested on: Amaranthus retroflexus
- assay.remarks: Post-emergence herbicidal activity, glasshouse pot test
- Type: in vivo
- Set-up: key: 0 = no damage to plant, 5 = total damage to plant
- condition.label: Application post-emergence, rate 1000 g/ha, evaluated after 13 days
Would you kindly list AMARE herbicidal damage score for each of these molecules?

Here is how some molecules turned out for AMARE herbicidal damage score.
# molecule, AMARE herbicidal damage score
rows = [
    ("CC1=C(Cl)C(=O)N(c2ncc(C#N)c(C(C)(C)C)n2)C1O (stereo not shown) [DF6]", 5),
    ("CC1=C(Cl)C(=O)N(c2nccc(C(C)(C)C)n2)C1O (stereo not shown) [DF2]", 5),
    ("COC1=C(C)C(O)N(c2cc(C(C)(F)F)c(C)nn2)C1=O (stereo not shown) [BI24]", 5),
]

Parameters: items (list). Returns: AMARE herbicidal damage score for each item.
1. CC1=C(Cl)C(=O)N(c2cc(C(F)(F)F)c(-c3cccc(C#N)c3)cn2)C1O (stereo not shown) [AF95]
2. COC1=C(C)C(O)N(c2cc(C)c(OC)nn2)C1=O (stereo not shown) [BG1]
3. COC1=C(OC)C(O)N(c2cc(C(F)(F)F)ncn2)C1=O (stereo not shown) [CK4]

5
5
3
